# credit: patent US20180318473A1

System: MX-1 mammary tumor cells
Test: Cytotoxic activity on MX-1 mammary tumor cells in culture
Conditions: read-out: Cytotoxicity on MX-1, IC50; MX-1 mammary tumor cells in culture; drug itself
pIC50: −log10 of the molar value.
pIC50 below 4 gives 0.0; pIC50 at or above it gives 1.0.

Look over these answered cases.
Exercise: Hello, I need to know if CCC1(OC(=O)COC)C(=O)OCc2c1cc1n(c2=O)Cc2cc3cc(OC(=O)COC)ccc3nc2-1 (stereo not shown) has measured pIC50 not below 4. Thanks!
Key: 0.0

Exercise: // same read-out, input: C=CCNC1=C2C[C@@H](C)C[C@H](OC)[C@H](O)[C@@H](C)/C=C(\C)[C@H](OC(N)=O)[C@@H](OC)/C=C\C=C(/C)C(=O)NC(=CC1=O)C2=O [Compound 17AAG, 17AAG, reference compound]
Key: 1.0

Exercise: Proceed to CCCCCCCCCC(=O)Oc1ccc2nc3c(c(CC)c2c1)Cn1c-3cc2c(c1=O)COC(=O)[C@@]2(CC)OC(=O)CCCCCCCCC
Key: 0.0

Exercise: Now give it for CCCC(=O)Oc1ccc2nc3c(cc2c1)Cn1c-3cc2c(c1=O)COC(=O)[C@@]2(CC)OC(=O)CCC too.
Key: 0.0

From here, focus on the item given below.
Exercise: Check the entry CO[C@H]1C[C@@H]2CC[C@@H](C)[C@@](O)(O2)C(=O)C(=O)N2CCCC[C@H]2C(=O)O[C@H]([C@H](C)C[C@@H]2CC[C@@H](O)[C@H](OC)C2)CC(=O)[C@H](C)/C=C(\C)[C@@H](O)[C@@H](OC)C(=O)[C@H](C)C[C@H](C)/C=C/C=C/C=C/1C [Rapamycin, reference compound] : does pIC50 equal or exceed 4?
Key: 1.0

----------
Quick reference: HPLC retention time (min) Condition 2 of the listed items.
Test: Hydrophobicity by relative elution time from a C18 HPLC column
Type: physicochemical
Settings: acetonitrile/water gradient 50:50 to 90:10, 1 mL/min, column temperature 35° C.
Give the number; min is assumed, so skip it.

# count of solved cases: 4
Exercise: Form field: reported HPLC retention time (min) Condition 2 of CCc1c2c(nc3ccc(OC(=O)CCCC(C)CC)cc13)-c1cc3c(c(=O)n1C2)COC(=O)[C@@]3(CC)OC(=O)CCCC(C)CC (stereo partly drawn) [Compound 21]
Key: 40.2

Exercise: Queued: CCCCCCCCCC(=O)Oc1ccc2nc3c(c(CC)c2c1)Cn1c-3cc2c(c1=O)COC(=O)[C@@]2(CC)OC(=O)CCCCCCCCC [Compound 17]
Key: 31.2

Exercise: What about CCCCCCCCCCCC(=O)Oc1ccc2nc3c(c(CC)c2c1)Cn1c-3cc2c(c1=O)COC(=O)[C@@]2(CC)OC(=O)CCCCCCCCCCC [Compound 19] ?
Key: 31.2

Exercise: Entry CCCCCCCCCCCCCCCC(=O)Oc1ccc2nc3c(cc2c1)Cn1c-3cc2c(c1=O)COC(=O)C2(CC)OC(=O)CCCCCCCCCCCCCCC (stereo not drawn) [Compound 22] please
Key: 30.5

Others:
Exercise: Fill blank: measured HPLC retention time (min) Condition 2 of the compound CCCCCCCCCCCCCC(=O)Oc1ccc2nc3c(c(CC)c2c1)Cn1c-3cc2c(c1=O)COC(=O)[C@@]2(CC)OC(=O)CCCCCCCCCCCCC [Compound 18] is ____.
Key: 31.2

Exercise: Also check COC1=C2C[C@@H](C)C[C@H](OC)[C@H](O)[C@@H](C)/C=C(\C)[C@H](OC(N)=O)[C@@H](OC)/C=C\C=C(/C)C(=O)NC(=CC1=O)C2=O [Geldanamycin, reference compound]
Key: 10.8
